Kindly supply the reported GI50 values for the records listed here.
System: MDA-MB-231 breast cancer cell lines
Experiment: Evaluation of inhibition on cell growth (MTS)
Type: cell-based
Conditions: Homo sapiens, MDA-MB-231, 120 hours
Structures can show the parent of a compound that is named as a salt.

Value of GI50 reported for the compound CN[C@@H](C)C(=O)N[C@H](C(=O)N1CCC[C@H]1C(=O)Nc1cc2c(Nc3ccc(OCc4ccccn4)c(Cl)c3)ncnc2cc1OC)C(C)(C)C [Example 102, hydrochloride] is ≤ 0.1 µM

The compound identified as CN[C@@H](C)C(=O)N[C@H](C(=O)N1CCC[C@H]1C(=O)Nc1cc2c(Nc3cccc(OC)c3)ncnc2cc1OC)C(C)(C)C [Example 57, hydrochloride] registered its GI50 at ≤ 0.1 µM

In plain terms, CN[C@@H](C)C(=O)N[C@H](C(=O)N1CCC[C@H]1C(=O)Nc1cc2c(Nc3c(Cl)ccc4c3OCO4)ncnc2cc1OCCOC)C(C)(C)C [Example 3, hydrochloride] has a documented GI50 of 0.1 to 1 µM

Data point: CN[C@@H](C)C(=O)N[C@H](C(=O)N1CCC[C@H]1C(=O)Nc1cc2c(Nc3ccc(-n4ccnc4)cc3)ncnc2cc1OC)C(C)(C)C [Example 88, hydrochloride] ; GI50 = ≤ 0.1 µM

Looking up CN[C@@H](C)C(=O)N[C@H](C(=O)N1CCC[C@H]1C(=O)Nc1cc2c(Nc3ccc4c(c3)CCC4)ncnc2cc1OC)C(C)(C)C [Example 52, hydrochloride] , I found its GI50 recorded as ≤ 0.1 µM

Looking up CN[C@@H](C)C(=O)N[C@H](C(=O)N1CCC[C@H]1C(=O)Nc1cc2c(Nc3ccc(N4CCS(=O)(=O)CC4)cc3)ncnc2cc1OC)C(C)(C)C [Example 72] , I see its GI50 listed as ≤ 0.1 µM

Sure, the documented GI50 for CN[C@@H](C)C(=O)N[C@H](C(=O)N1CCC[C@H]1C(=O)Nc1cc2c(Nc3ccc(N4CCN(C)CC4)c(F)c3)ncnc2cc1OC)C(C)(C)C [Example 112] is ≤ 0.1 µM

CN[C@@H](C)C(=O)N[C@H](C(=O)N1CC[C@H]1C(=O)Nc1cc2c(Nc3ccc(F)c(Cl)c3F)ncnc2cc1OC)C(C)(C)C [Example 20, hydrochloride] has a reported GI50 of 0.1 to 1 µM

Reported GI50 for C#CCOc1ccc(Nc2ncnc3cc(OC)c(NC(=O)[C@@H]4CCCN4C(=O)[C@@H](NC(=O)[C@H](C)NC)C(C)(C)C)cc23)cc1 [Example 91, hydrochloride] was ≤ 0.1 µM

Record CN[C@@H](C)C(=O)N[C@H](C(=O)N1CCC[C@H]1C(=O)Nc1cc2c(Nc3ccc(OCc4cccc(F)c4)c(Cl)c3)ncnc2cc1OC)C(C)(C)C [Example 37, hydrochloride] . Reported GI50: ≤ 0.1 µM

The recorded GI50 for entry CN[C@@H](C)C(=O)N[C@H](C(=O)N1CCC[C@H]1C(=O)Nc1cc2c(Nc3ccc(N4CCN(C)CC4)c(Cl)c3)ncnc2cc1OC)C(C)(C)C [Example 86, hydrochloride] equals ≤ 0.1 µM

----------
Kindly supply the reported GI50 at 72 h values for the records listed here.
Experiment: Toxicity to normal cells (SRB)
Assay type: cell-based, mouse
Conditions: mouse, Balb/c3t3 fibroblasts (normal cell line), read-out: BalB/C (GI50)
Counter-ions that a name gives are not always drawn.

# molecule CN[C@@H](C)C(=O)N[C@H](C(=O)N1CCC[C@H]1C(=O)Nc1cc2c(Nc3ccccc3Br)ncnc2cc1OC)C(C)(C)C [Example 22, hydrochloride] ; its GI50 at 72 h = > 10 µM

Per the records, this molecule ( CN[C@@H](C)C(=O)N[C@H](C(=O)N1CCC[C@H]1C(=O)Nc1cc2c(Nc3c(Cl)ccc4c3OCO4)ncnc2cc1OCCOC)C(C)(C)C [Example 3, hydrochloride] ) has GI50 at 72 h equal to > 10 µM

For record CN[C@@H](C)C(=O)N[C@H](C(=O)N1CCC[C@H]1C(=O)Nc1cc2c(Nc3cccc4ncccc34)ncnc2cc1OC)C(C)(C)C [Example 63, hydrochloride] the listed GI50 at 72 h is > 10 µM
